# test_method_notes: passive permeability, PAMPA, ADME assay (AID 1508612)
# reported_conditions: pH 7.4, 30.0 min, 50.0 µM
Hi all, reminder that labels come from Papp, split as interval 1 = under 80 ×10⁻⁶ cm/s, interval 2 = from 80 ×10⁻⁶ cm/s up to 600 ×10⁻⁶ cm/s, interval 3 = 600 ×10⁻⁶ cm/s and over

In [3]: df
Out[3]:
                                    compound    category
 0  O=[S+]([O-])(Nc1nccs1)c1ccc(NCc2cc(Cl)cc(Br)c2O)cc1  interval 2
 1        CCN(CC)C(=O)N1c2ccccc2C=Cc2ccccc21  interval 3
 2  COc1cc(C(=O)N2CCN(c3cc(Cl)ccc3Cl)CC2)cc(OC)c1OC  interval 3
 3  Cc1ccc(C(=O)Nc2ccc(CN3CCN(C)CC3)c(C(F)(F)F)c2)cc1C#Cc1cnc2cccnn12  interval 3
 4  COc1ccc(OCc2ccc(-c3nc(C#N)c(NC(C)c4ccccc4)o3)o2)cc1 (configuration not stated)  interval 1
 5  Cc1cc(-c2nnc3n2CCCCC3)c(C)n1-c1ccc(Cl)c(Cl)c1  interval 3
 6  O=[N+]([O-])c1ccc(/C=N/n2c(CO)nc3ccccc32)s1  interval 2
 7     Cc1nc2c(-c3ccccc3)cnn2c(N)c1-c1ccccc1  interval 2
 8  CN1C(=O)c2ccccc2[S@](=O)c2ccc(C(=O)NCc3ccc(Cl)cc3)cc21  interval 3
 9            CNc1nc(-c2cccc3ccccc23)ccc1C#N  interval 3
10  O=C(Nc1cncc(Cc2ccccc2)c1)c1ccc(-c2cccc([N+](=O)[O-])c2)o1  interval 3
11  CCOc1ccc(CNC(=O)CCCn2nc(C)c3c(C)n(-c4ccc(C)cc4)nc3c2=O)cc1  interval 3
12  CN(C)C(=O)c1nc(-c2ccc(S(C)(=O)=O)cc2)c2cnccn12  interval 1
13  CCCCCn1c(=O)[nH]c2cc(C(=O)NCCCN3CCCCC3)ccc2c1=O  interval 1
14  Fc1cc(Nc2nc(-c3ccncc3)nc3ccccc23)ccc1OC(F)(F)F  interval 2
15  O=C(NC1CCCc2c1cnn2-c1ccc(F)cc1F)c1ccc(C2(C(F)(F)F)N=N2)cc1 (configuration not stated)  interval 1
16  COc1ccc(NC(=O)c2c(C)cccc2C)cc1[S+](=O)([O-])N1CCCCCC1  interval 3
17     O=C(N/N=C/c1ccc(Sc2ccccn2)o1)c1ccncc1  interval 1
18  CCC(C)N(C)C(=O)c1cc2ccccc2c(-c2ccccc2Cl)n1 (configuration not stated)  interval 3
19  O=C(c1ccc2c(c1)OCO2)N1CCC(Cc2nc(-c3cnccn3)no2)CC1  interval 1
20   COCCNC(=O)c1ccc(-c2ccc(N3CCCCC3)nc2)cc1  interval 3

###

# test_method_notes: passive permeability, PAMPA, ADME assay (AID 1508612)
# reported_conditions: pH 7.4, 30.0 min, 50.0 µM
test_readout: Papp (×10⁻⁶ cm/s)

>>> df
                                   compound   unit_name  op  obs_value
0  Cc1ccc(S(=O)(=O)Nc2cnccc2C(=O)Nc2nc(-c3ccc(C)c(C)c3)cs2)cc1  ×10⁻⁶ cm/s   >       1000
1  Cc1ccc(N2CCN(c3cnn(-c4nc5ccccc5s4)c(=O)c3Cl)CC2C)cc1 (stereo not drawn)  ×10⁻⁶ cm/s   =        317
2  COc1ccc2cc1Oc1ccc(cc1)C[C@@H]1c3c(cc(OC)c4c3Oc3cc5c(cc3O4)CCN[C@H]5C2)CCN1C  ×10⁻⁶ cm/s   =        217
